Data provenance: patent US11053234B2

target: haematopoietic prostaglandin D synthase (H-PGDS) (Homo sapiens, UniProt O60760); construct: Full length human H-PGDS cDNA (Invitrogen Ultimate ORF 10H13026) was amplified by PCR; 6-His (N); TEV protease cleavage site (N); made in house; host or cells: E. coli BL21 (DE3*), vector pET22b+; experiment: H-PGDS RapidFire high throughput mass spectrometry assay (conversion of PGH2 to PGD2); format: biochemical; conditions: 10 nM H-PGDS, PGH2 formed in situ by COX-2 from arachidonic acid; read-out: Potency Range (mean pIC50) (converted)
Sequence (O60760 whole entry): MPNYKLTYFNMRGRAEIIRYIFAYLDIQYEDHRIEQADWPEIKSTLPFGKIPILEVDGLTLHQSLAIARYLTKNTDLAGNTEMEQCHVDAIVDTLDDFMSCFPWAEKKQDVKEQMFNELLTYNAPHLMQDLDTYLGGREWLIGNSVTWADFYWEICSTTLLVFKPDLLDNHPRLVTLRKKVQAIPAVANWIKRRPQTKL
Structures can show the parent of a compound that is named as a salt.
IC50: recorded values
Readout kind: IC50

CC(C)(O)[C@H]1CC[C@H](NC(=O)[C@H]2C[C@H](Oc3cccn4ccnc34)C2)CC1 : 100 to 1000 nM
CN/C(=N\C#N)N1CC(NC(=O)[C@H]2C[C@H](Oc3cccc4scnc34)C2)C1 : 100 to 1000 nM
O=C(Nc1nccs1)[C@H]1C[C@H](Oc2ccc(F)c3cccnc23)C1 [Example 291, trifluoroacetic acid salt] : 100 to 1000 nM
COCCO[C@H]1CC[C@H](NC(=O)N2CC(Oc3cc(F)cc4scnc34)C2)CC1 : 10 to 79.4 nM
COc1ccc(F)cc1O[C@H]1C[C@H](C(=O)Nc2nnc(C)s2)C1 : 10 to 79.4 nM
O=C(NC1CN(c2ncccn2)C1)[C@H]1C[C@H](Oc2cccc3scnc23)C1 : 10 to 79.4 nM

====

A collection of compounds and their measured IC50
molecular target: haematopoietic prostaglandin D synthase (H-PGDS) (Homo sapiens, UniProt O60760); construct: Full length human H-PGDS cDNA (Invitrogen Ultimate ORF 10H13026) was amplified by PCR; 6-His (N); TEV protease cleavage site (N); made in house; host or cells: E. coli BL21 (DE3*), vector pET22b+; test: H-PGDS RapidFire high throughput mass spectrometry assay (conversion of PGH2 to PGD2); type: biochemical; conditions: 10 nM H-PGDS, PGH2 formed in situ by COX-2 from arachidonic acid; read-out: Potency Range (mean pIC50) (converted)
Counter-ions that a name gives are not always drawn.
Readout kind: IC50

O=C1CC(NC(=O)[C@H]2C[C@H](Oc3cccc4scnc34)C2)c2ccccc2N1 (mixture of isomers) [Example 84] : 0.01 to 0.0794 µM
CCn1nnnc1NC(=O)N1CC(Oc2cccc3scnc23)C1 [Example 325] : 0.1 to 1 µM
CC(N[C@H]1CC[C@H](NC(=O)[C@H]2C[C@H](Oc3cccc4cccnc34)C2)CC1)C(F)F (mixture of isomers) [Example 180] : 0.1 to 1 µM
O=C(Nc1ccn[nH]1)[C@H]1C[C@H](Oc2cccc3scnc23)C1 [Example 301] : 0.1 to 1 µM
Cc1nnc(NC(=O)[C@H]2C[C@H](Oc3cccc4cccnc34)C2)s1 [Example 203] : 0.01 to 0.0794 µM
O=C(Nc1cccc(N2CCOCC2)c1)N1CC(Oc2cccc3scnc23)C1 [Example 309] : 0.1 to 1 µM
Cc1n[nH]c(NC(=O)N2CC(Oc3cccc4scnc34)C2)c1C#N [Example 329] : 0.1 to 1 µM
CC(C)(C)c1nsc(NC(=O)N2CC(Oc3cccc4scnc34)C2)n1 [Example 339] : 0.01 to 0.0794 µM
CC(C)(O)[C@H]1CC[C@H](NC(=O)[C@H]2C[C@H](Oc3cccc4ccoc34)C2)CC1 [Example 267] : 0.01 to 0.0794 µM
CC(C)(O)c1csc(NC(=O)N2CC(Oc3cccc4scnc34)C2)n1 [Example 56] : 0.1 to 1 µM
COc1ccc(F)cc1O[C@H]1C[C@H](C(=O)N[C@H]2CC[C@H](OCC(C)(C)O)CC2)C1 [Example 169] : 0.01 to 0.0794 µM
CC(C)(O)C(=O)N1CCC(NC(=O)[C@H]2C[C@H](Oc3cc(F)cc4scnc34)C2)CC1 [Example 303] : 0.1 to 1 µM
CC(=O)c1csc(NC(=O)[C@H]2C[C@H](Oc3cccc4scnc34)C2)n1 [Example 68] : 0.01 to 0.0794 µM
COc1ccc(F)cc1O[C@H]1C[C@H](C(=O)N[C@H]2CC[C@H](OC)CC2)C1 [Example 150] : 0.01 to 0.0794 µM
Cc1nccc(N2CC(NC(=O)[C@H]3C[C@H](Oc4cc(F)cc5scnc45)C3)C2)n1 [Example 123] : 0.01 to 0.0794 µM
O=C(N[C@H]1CC[C@H](N2CCCS2(=O)=O)CC1)N1CC(Oc2cccc3scnc23)C1 [Example 101] : 0.01 to 0.0794 µM
C[C@]1(O)CC[C@H](NC(=O)[C@H]2C[C@H](Oc3cccc4cccnc34)C2)CC1 [Example 182] : 0.1 to 1 µM
CC(C)(O)[C@@H]1CC[C@@H](NC(=O)[C@H]2C[C@H](Oc3cc(F)cc4scnc34)C2)CO1 (racemic) [Example 139] : 0.01 to 0.0794 µM
CCOC(=O)c1cnc(N2CC(NC(=O)[C@H]3C[C@H](Oc4cccc5scnc45)C3)C2)o1 [Example 48] : 0.1 to 1 µM
O=C(NC1CCN(c2ccccn2)C1)N1CC(Oc2cccc3scnc23)C1 (racemic) [Example 87] : 0.1 to 1 µM
CC(C)(O)Cc1csc(NC(=O)[C@H]2C[C@H](Oc3cccc4cccnc34)C2)n1 [Example 209, trifluoroacetic acid salt] : 0.01 to 0.0794 µM
O=C(N[C@H]1CC[C@H](N[C@@H](CO)C(F)(F)F)CC1)[C@H]1C[C@H](Oc2cc(F)ccc2OC(F)F)C1 [Example 20] : 0.01 to 0.0794 µM
O=C(NC1CCN(C(=O)OCc2ccccc2)CC1)N1CC(Oc2cccc3scnc23)C1 [Example 89] : 0.01 to 0.0794 µM
CC(C)(O)[C@H]1CC[C@H](NC(=O)[C@H]2C[C@H](Oc3cccc(Cl)c3)C2)CC1 [Example 288] : 0.1 to 1 µM
CC(C)(O)C12CC(NC(=O)[C@H]3C[C@H](Oc4cccc5scnc45)C3)(C1)C2 [Example 318] : 0.01 to 0.0794 µM
Cc1nnc(NC(=O)[C@H]2C[C@H](Oc3cccc4scnc34)C2)o1 [Example 79] : 0.1 to 1 µM
O=C(NC1CN(c2cccnn2)C1)[C@H]1C[C@H](Oc2cccc3scnc23)C1 [Example 245] : 0.01 to 0.0794 µM
CS(=O)(=O)c1ccc(NC(=O)N2CC(Oc3cccc4scnc34)C2)nc1 [Example 311] : 0.01 to 0.0794 µM

====

Target: haematopoietic prostaglandin D synthase (H-PGDS) (Homo sapiens, UniProt O60760)
Construct: Full length human H-PGDS cDNA (Invitrogen Ultimate ORF 10H13026) was amplified by PCR; 6-His (N); TEV protease cleavage site (N); made in house; host or cells: E. coli BL21 (DE3*), vector pET22b+
Test: H-PGDS RapidFire high throughput mass spectrometry assay (conversion of PGH2 to PGD2)
Type: biochemical
Details: 10 nM H-PGDS, PGH2 formed in situ by COX-2 from arachidonic acid; read-out: Potency Range (mean pIC50) (converted)
From the text: H-PGDS RapidFire™ High Throughput Mass Spectrometry Assay The H-PGDS RapidFire™ mass spectrometric assay monitors conversion of prostaglandin H2 (PGH2) to prostaglandin D2 (PGD2) by haematopoietic prostaglandin D synthase (H-PGDS). […] Plates are then read on the RapidFire™ high throughput solid phase extraction system (Agilent) which incorporates a solid phase extraction step coupled to a triple quadrupole mass spectrometer (AB SCIEX). […]
Readout kind: IC50

O=C(NC1CCS(=O)(=O)C1)[C@H]1C[C@H](Oc2cccc3scnc23)C1 (mixture of isomers) : 100 to 1000 nM
Cc1nnc(NC(=O)[C@H]2C[C@H](Oc3cccc4ccoc34)C2)s1 : 10 to 79.4 nM
CC(O)(c1csc(NC(=O)[C@H]2C[C@H](Oc3cccc4cccnc34)C2)n1)C(F)(F)F (mixture of isomers) : 10 to 79.4 nM
Cn1ccc(NC(=O)N2CC(Oc3cccc4scnc34)C2)n1 : 100 to 1000 nM
O=C(N[C@H]1CC[C@@H](NC(CO)C(F)(F)F)CC1)N1CC(Oc2cc(F)cc3scnc23)C1 (mixture of isomers) : 10 to 79.4 nM
O=C(Nc1cncnc1)[C@H]1C[C@H](Oc2cc(F)ccc2OC(F)F)C1 : 100 to 1000 nM
O=C(NC1CCc2ccccc21)[C@H]1C[C@H](Oc2cccc(Cl)c2)C1 (mixture of isomers) : 10 to 79.4 nM
CC(N[C@H]1CC[C@H](NC(=O)[C@H]2C[C@H](Oc3cc(F)cc4scnc34)C2)CC1)C(F)F (mixture of isomers) : 10 to 79.4 nM
CC(C)(O)[C@H]1CC[C@H](NC(=O)N2CC(Oc3cccc4scnc34)C2)CC1 : 10 to 79.4 nM
